Numbers sourced from paper PMC10397247.

System: T1, P6-AA-1HAA-D
T1 chain: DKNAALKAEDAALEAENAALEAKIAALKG
Method notes: two-hybrid library CCmax;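 note: natural log of median RNA to DNA barcode read ratio; higher means stronger binding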
Condition notes: mean of both orientations
Test readout: interaction score
Just the number, please, no unit after it.

Solved entries (count: 5):
>  <Binder>
DENAALEAKKAALKAKNAALKAEIAALEG [P5-AA-1HAA-K]

>  <Reported>
-0.814

$$$$
>  <Binder>
DENAALEAKHAALKAKNAALKAEIAALEG [P5-AA-1HAA-H]

>  <Reported>
-0.238

$$$$
>  <Binder>
DENAALEAKLAALKAKNAALKAEIAALEG [P5-AA-1HAA-L]

>  <Reported>
-0.436

$$$$
>  <Binder>
DENAALEAKRAALKAKNAALKAEIAALEG [P5-AA-1HAA-R]

>  <Reported>
-0.756

$$$$
>  <Binder>
DENAALEAKDAALKAKNAALKAEIAALEG [P5-AA-1HAA-D]

>  <Reported>
-1.42

$$$$

**Q:** # input binder: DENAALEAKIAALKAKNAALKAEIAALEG [4H1401-AA] ; wanted: its interaction score
**A:** 0.667
